Target: T1, SARS nucleocapsid, recombinant (SARS-CoV, reference sequence (strain …, UniProt P59595))
T1 construct: source: bought: Sino Biologicals, baculovirus-insect cells
T1 sequence (P59595 whole entry): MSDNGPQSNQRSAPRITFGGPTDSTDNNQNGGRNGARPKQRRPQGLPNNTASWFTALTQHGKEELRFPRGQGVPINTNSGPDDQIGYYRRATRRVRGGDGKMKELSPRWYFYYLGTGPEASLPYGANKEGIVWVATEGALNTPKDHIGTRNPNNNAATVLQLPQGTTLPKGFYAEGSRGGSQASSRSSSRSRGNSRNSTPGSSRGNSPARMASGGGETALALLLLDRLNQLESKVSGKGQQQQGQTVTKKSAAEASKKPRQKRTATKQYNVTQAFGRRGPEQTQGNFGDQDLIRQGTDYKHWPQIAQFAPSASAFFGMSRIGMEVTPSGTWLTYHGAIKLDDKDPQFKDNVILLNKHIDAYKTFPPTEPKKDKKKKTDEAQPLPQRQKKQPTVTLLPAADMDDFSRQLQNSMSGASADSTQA
Experiment: ELISA
Listed binders paired with reported OD450
measuredMetric: OD450

1) EZ 11A (antibody, V domains shown, source: HEK293T, transfected; culture supernatant or purified) VH: EVQLVESGGGLVQPGGSLRLSCAASGFTFSSYWMSWVRQAPGKGLEWVANIKQDGSEKYYVDSVKGRFTISRDNAKNSLYLQMNSLRAEDTAVYYCARDDYSGSYYWEFDYWGQGTLVTVSS VL: QPVLTQSPSASASLGASVKLTCTLSSGHSSYAIAWHQQQPEKGPRYLMKLNSDGSHSKGDGIPDRFSGSSSGAERYLTISSLQSEDEADYYCQTWGTGIWVFGGGTKLTVL    1.31 OD450
2) EY 3B (antibody, V domains shown, source: HEK293T, transfected; culture supernatant or purified) VH: EVQLVESGAEVTKPGESLIISCKGSGYAFTQYWIGWVRQKPGKGLEWMAMVYPDSSAVFAGGASGVRYRPPFQGQVTISADTSVNTAYLQWDSLKASDTAMYYCVRQERGSNTWYAGNSWGQGTLVTVFS VL: EIVLTQSPLSLPVSPGEPASISCRSSQSLLHTDAYNYLDWYLQKPGQSPQLLIYLGSTRASGVPDRFSGSGSGTDFTLKISSVKAEDVGVYYCMQALQTPGTFGQGTKVEIR    1 OD450
3) EY 2A (antibody, V domains shown, source: HEK293T, transfected; culture supernatant or purified) VH: QVQLVESGAEVTKPGDSLIISCKGSGYAFTQYWIGWVRQKPGKGLEWMAMVYPDSSAVFAGGASGVRYRPPFQGQVTISADTSVNTAYLQWDSLKASDTAMYYCVRQERGSNTWYAGNSWGQGTLVTVSS VL: DIVMTQSPLSLPVSPGEPASISCRSSQSLLHTDAYNYLDWYLQKPGQSPQLLIYLGSTRASGVPDRFSGSGSGTDFTLKISSVKAEDVGVYYCMQALQTPGTFGQGTKLEIK    1.13 OD450
4) FD 6D (antibody, V domains shown, source: HEK293T, transfected; culture supernatant or purified) VH: EVQLVESGPGLVKVSETLFLTCTVSGYSIGSGNYWGWIRQPPGKVLEWIGSTYHSGTTYYNPSLKSRVTISVDSSKNQFSLKLTSVTAADTAVYYCARDRLLAVHYDSRGYLVDYWGQGTMVTVSS VL: AIRMTQSPDSLAVSLGERATINCKSSQSIFYSSNNKNYLAWYQHKPGQPPKLLIYWASTRESGVPDRFSGSGSGTDFTLTISSLQAEDVAIYYCQQYYDIPRTFGQGTKVEIR    1.19 OD450
